assay: in vitro; conditions: human, hela cells, % viability
The reader will find reported viability at 28.5 h, 10 µM values listed item by item below.

{"molecule": "CCN(CC)C(=O)Cn1nc(C)n2c(cc3sc(C)cc32)c1=O", "measurement-unit": "%", "viability at 28.5 h, 10 µM": 96.1}
{"molecule": "O=C(O)CCSc1nccc(C(F)(F)F)n1", "measurement-unit": "%", "viability at 28.5 h, 10 µM": 87.5}
{"molecule": "O=c1c2ccccc2nc2n1CCN(Cc1cc(F)ccc1F)CC2", "measurement-unit": "%", "viability at 28.5 h, 10 µM": 99.1}
{"molecule": "COc1cc(/C=C2\\N=C(c3cccs3)OC2=O)ccc1OCc1ccc(Cl)cc1", "measurement-unit": "%", "viability at 28.5 h, 10 µM": 101}
{"molecule": "CCOC(=O)c1cnn(C2CCCN(c3ccc(C#N)nc3)C2)c1 (centres unmarked)", "measurement-unit": "%", "viability at 28.5 h, 10 µM": 113}
{"molecule": "O=C(NCc1cccnc1)C1CCCN(c2nc3c(-c4ccccc4)csc3c(=O)[nH]2)C1 (centres unmarked)", "measurement-unit": "%", "viability at 28.5 h, 10 µM": 112}
{"molecule": "O=C(CSc1nnc(Nc2ccccc2)n1-c1ccccc1)Nc1ccc2c(c1)COC2=O", "measurement-unit": "%", "viability at 28.5 h, 10 µM": 105}
{"molecule": "Cc1ccc(NC(=O)CN2C(=O)N/C(=C\\c3cc(Br)cc(Cl)c3O)C2=O)cc1", "measurement-unit": "%", "viability at 28.5 h, 10 µM": 98.7}

* * *

assay: in vitro; settings: human, hela cells, % viability

{"molecule": "O=C(O)C1C2CCC(O2)C1C(=O)Nc1cnn(Cc2ccccc2)c1 (centres unmarked)", "viability at 28.5 h, 10 µM (%)": 96}
{"molecule": "CC(C)c1nnc(NS(=O)(=O)Cc2ccccc2)s1", "viability at 28.5 h, 10 µM (%)": 93}
{"molecule": "O=C(O)CSc1nnc(-c2ccncc2)n1-c1ccc(Cl)cc1", "viability at 28.5 h, 10 µM (%)": 92.1}
{"molecule": "O=C(NCc1ccccc1)c1ccco1", "viability at 28.5 h, 10 µM (%)": 118}
{"molecule": "CCc1nc2cccnc2n1CCNC(=O)Cc1cccs1", "viability at 28.5 h, 10 µM (%)": 98.9}
{"molecule": "COc1ccc(CN2CCN(C(=O)c3cccc(F)c3)CC2)cc1", "viability at 28.5 h, 10 µM (%)": 97}
{"molecule": "O=c1c(N2CCNCC2)nccn1CC1COc2ccccc2O1 (centres unmarked) [CBK024845T]", "viability at 28.5 h, 10 µM (%)": 87}
{"molecule": "Cc1nnc(SCc2cc(=O)[nH]c(Nc3nc(C)c4cccc(C)c4n3)n2)s1", "viability at 28.5 h, 10 µM (%)": 92.9}
{"molecule": "CN1CCCCC1CC(=O)Nc1ccc2ncn(C)c2c1 (centres unmarked)", "viability at 28.5 h, 10 µM (%)": 87.6}
{"molecule": "CN1CC(=O)N(CC(=O)N2CC=C(c3ccccc3)CC2)c2ccccc2C1=O", "viability at 28.5 h, 10 µM (%)": 88}
{"molecule": "CCN(CC)C(=O)CCn1c(-c2cccnc2C)cc2cccnc21", "viability at 28.5 h, 10 µM (%)": 91.5}
{"molecule": "Cc1ccc(NC(=S)NCCc2ccc(S(N)(=O)=O)cc2)c(C)c1", "viability at 28.5 h, 10 µM (%)": 93.9}
{"molecule": "c1ccc(-c2nnc(CSc3nnc(-c4ccncc4)[nH]3)o2)cc1", "viability at 28.5 h, 10 µM (%)": 94.9}
{"molecule": "O=S(=O)(O)c1cc(O)c2c(/N=N/c3c(S(=O)(=O)O)cc4cc(S(=O)(=O)O)cc(O)c4c3O)cc(S(=O)(=O)O)cc2c1", "viability at 28.5 h, 10 µM (%)": 102}
{"molecule": "Cc1sc2ncnc(N3CCCC3Cn3cccn3)c2c1C (centres unmarked)", "viability at 28.5 h, 10 µM (%)": 90.9}
{"molecule": "CC(=O)N[C@H]1CC[C@]2(C)CCC([C@H](C)C(=O)NCCN3CCOCC3)[C@H](O)[C@H]2[C@@H]1C (some centres unmarked)", "viability at 28.5 h, 10 µM (%)": 114}
{"molecule": "CNC(=O)C1CCCN1C(=O)c1nnn(Cc2ccc(F)cc2F)c1C (centres unmarked)", "viability at 28.5 h, 10 µM (%)": 93.2}
{"molecule": "O=C(NCCC1=CCCCC1)c1cnc2n(c1=O)CCS2", "viability at 28.5 h, 10 µM (%)": 89.8}
{"molecule": "O=C(C[S+]([O-])c1ccc(C(F)(F)F)cc1[N+](=O)[O-])Oc1cccc2cccnc12 (centres unmarked)", "viability at 28.5 h, 10 µM (%)": 91.6}
{"molecule": "Cc1ccc(S(=O)(=O)NCCSc2ccccc2)cc1[N+](=O)[O-]", "viability at 28.5 h, 10 µM (%)": 93.6}
{"molecule": "COc1ccc2cc3c(nc2c1)OC(=O)N(CC1CC1)C3", "viability at 28.5 h, 10 µM (%)": 86.8}
{"molecule": "CCOc1cc(NC2CCN(C(=O)C3(CC(C)C)CCC3)CC2)ncn1", "viability at 28.5 h, 10 µM (%)": 105}
{"molecule": "C[C@@H](c1ccccc1)n1c(=O)[nH]c2ncc(-c3cccc4ccccc34)nc21", "viability at 28.5 h, 10 µM (%)": 97}
{"molecule": "CCc1ccc(O)c(NC(=S)NC(=O)c2cccc3c(Br)cccc23)c1", "viability at 28.5 h, 10 µM (%)": 111}
{"molecule": "CN(CC(=O)Nc1ccccc1C(N)=O)S(=O)(=O)c1ccc(Br)cc1", "viability at 28.5 h, 10 µM (%)": 98.7}
{"molecule": "COCC(=O)N1CCC2(CC1)CC(=O)c1cc(Cl)cc(Cl)c1O2", "viability at 28.5 h, 10 µM (%)": 84.1}
{"molecule": "N/C(=N\\c1nonc1N)NC(=O)c1ccccc1", "viability at 28.5 h, 10 µM (%)": 71.5}
{"molecule": "Clc1ccc(COc2ccccc2OCc2ccccc2)s1", "viability at 28.5 h, 10 µM (%)": 87.7}
{"molecule": "COCCN(Cc1cc2ccc(C)cc2nc1O)S(=O)(=O)c1ccccc1", "viability at 28.5 h, 10 µM (%)": 99.6}
{"molecule": "Cc1c(-c2cccc(Cl)c2)nc2ccccc2c1C(=O)NCCc1ccc(S(N)(=O)=O)cc1", "viability at 28.5 h, 10 µM (%)": 96}
{"molecule": "OCc1cccc(-c2cncc(N3CCN(CCN4CCCC4)CC3)n2)c1", "viability at 28.5 h, 10 µM (%)": 99.8}
{"molecule": "O=C(NCC1COc2ccccc2O1)C1(c2ccccc2)CCCC1 (centres unmarked)", "viability at 28.5 h, 10 µM (%)": 93.8}
